B1: Pistol ribozyme (parent)
chain: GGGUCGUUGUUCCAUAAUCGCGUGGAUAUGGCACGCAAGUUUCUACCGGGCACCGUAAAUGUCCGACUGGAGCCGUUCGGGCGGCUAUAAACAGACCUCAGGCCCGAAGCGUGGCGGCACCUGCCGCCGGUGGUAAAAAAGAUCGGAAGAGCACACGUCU

# Variants of: B1
# Procedure Text: aptazyme ON/OFF ratio, guanine; higher = stronger switching; co-transcriptional cleavage with and without guanine
The entries below are paired with their reported aptazyme ON/OFF ratio.

# example entries with known answers
>>> observed_value("U7C U8A G9U U10A U11A C12G C13G")
1.2
>>> observed_value("U7C U8C U10G U11G C12G")
1.2
>>> observed_value("U7C U8A G9C U10A C13U")
1.24

Request: Requested read-out: aptazyme ON/OFF ratio. Entry: U7C U8G G9A U10C U11C C12A
Result: 1.05

Request: Continue with U7C U8G G9U U10C U11A C13G
Result: 1.24

Request: Continue with G9A U11C C12A C13U
Result: 1.23
